Where do the numbers come from? From patent US5747535A.

# PROTOCOL TEXT: Test 2: Pharmacokinetic test in dogs
# Format: in vivo, dog
# CONDITION: dog, blood, po, 10 mg/kg, dogs, oral 10 mg/kg, 120 min; read-out: Blood concentration, Average(+error)
OBSERVABLE: concentration at 2 h

Provide only the value of recorded concentration at 2 h for CN(C(=O)[C@H](Cc1ccc(C(=N)NN)cc1)NS(=O)(=O)c1ccc2ccccc2c1)C1CCCC1
752 ng/mL

====

# PROTOCOL TEXT: Test 2: Pharmacokinetic test in dogs
# Type: in vivo, dog
# CONDITION: dog, blood, po, 10 mg/kg, Dog-2, oral 10 mg/kg, 45 min; read-out: Blood concentration
OBSERVABLE: concentration at 0.75 h (ng/mL)
Report as a plain number; the unit ng/mL is understood.

Provide only the value of recorded concentration at 0.75 h for CN(C(=O)[C@H](Cc1ccc(C(=N)NN)cc1)NS(=O)(=O)c1ccc2ccccc2c1)C1CCCC1
558

====

# TARGET DESC: bovine thrombin (Bos taurus)
# PROTOCOL TEXT: biochemical
pKi: −log10 of the molar value.
Assign 1 whenever pKi does not fall below 7; assign 0 whenever it does.

Study these solved cases before continuing.
MOL SMILES | CLASS
COC(=O)CCCN(C)C(=O)[C@H](Cc1ccc(C(=N)NN)cc1)NS(=O)(=O)c1ccc2ccccc2c1 | 0
COC(=O)CN(C)C(=O)[C@H](Cc1ccc(C(=N)NN)cc1)NS(=O)(=O)c1ccc2ccccc2c1 | 0

Item N=C(NN)c1ccc(C[C@H](NS(=O)(=O)c2ccc3ccccc3c2)C(=O)N2CCN(C=O)CC2)cc1 with pKi of 7 or above?
1

====

# TARGET DESC: bovine thrombin (Bos taurus, UniProt P00735);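 further: bovine thrombin cleaving the chromogenic substrate Chromozym TH, with para-nitroaniline release tracked as absorbance change over time to give initial rates, in Tris buffer at pH 7.8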
# PROTOCOL TEXT: biochemical
OBSERVABLE: log10 Ki (log10 of the value in µM)
Quick note: numbers are log10 of Ki, with µM as the unit.

Below, each entry is followed by its recorded log10 Ki result.
MOL SMILES | MEASURED VALUE
COc1cccc2c(S(=O)(=O)N[C@@H](Cc3ccc(C(=N)NN)cc3)C(=O)N(C)C3CCCC3)cccc12 | -2.28
CN(C(=O)[C@H](Cc1ccc(C(=N)NN)cc1)NC(=O)COc1cccc2ccccc12)C1CCCC1 | 0.41
COc1cc2ccc(S(=O)(=O)N[C@@H](Cc3ccc(C(=N)NN)cc3)C(=O)N(C)C3CCCC3)cc2cc1OC | -1.66

Provide only the value of recorded log10 Ki for COC(=O)[C@H](C)N(C)C(=O)[C@H](Cc1ccc(C(=N)NN)cc1)NS(=O)(=O)c1ccc2ccccc2c1
-1.19

Provide only the value of recorded log10 Ki for CCOc1ccccc1N1CCN(C(=O)[C@H](Cc2ccc(C(=N)NN)cc2)NS(=O)(=O)c2ccc3ccccc3c2)CC1
0.96
